measurement.protocol: Dose escalation study, single/multiple dose and loading dose regimens: pharmacokinetics
Assay type: in vivo, human
conditions.used: human, in vivo, 1650 mg, Period 2 Day 6, 1650 mg BID
quantity.measured: Vd/F

For CC(=O)O[C@H]1C[C@@]2(C)[C@@H](C[C@@H](O)[C@H]3[C@@]4(C)CC[C@@H](O)[C@@H](C)[C@@H]4CC[C@@]32C)/C1=C(\CCC=C(C)C)C(=O)O [CEM-102, Sodium fusidate] , what is its reported Vd/F?
34.8 L

* * *

measurement.protocol: Dose escalation study, single/multiple dose and loading dose regimens: pharmacokinetics
Format: in vivo, human
conditions.used: human, in vivo, 1100 mg, Period 1 Day 1, single dose 1100 mg
quantity.measured: Vd/F (L)
Express it in L; write the number only.

For CC(=O)O[C@H]1C[C@@]2(C)[C@@H](C[C@@H](O)[C@H]3[C@@]4(C)CC[C@@H](O)[C@@H](C)[C@@H]4CC[C@@]32C)/C1=C(\CCC=C(C)C)C(=O)O [CEM-102, Sodium fusidate] , what is its reported Vd/F?
16.9

* * *

measurement.protocol: Single oral dose bioavailability study, fed/fasted crossover, plasma fusidic acid
conditions.used: human, in vivo, 500 mg, 500 mg single oral dose, fed, read-out: Cmax, geometric mean (CV %)
quantity.measured: Cmax (ng/mL)
Express it in ng/mL; write the number only.

For CC(=O)O[C@H]1C[C@@]2(C)[C@@H](C[C@@H](O)[C@H]3[C@@]4(C)CC[C@@H](O)[C@@H](C)[C@@H]4CC[C@@]32C)/C1=C(\CCC=C(C)C)C(=O)O [CEM-102, Sodium fusidate] , what is its reported Cmax?
21200

* * *

measurement.protocol: Dose escalation study, single/multiple dose and loading dose regimens: pharmacokinetics
Type: in vivo, human
conditions.used: human, in vivo; Period 1 Day 1, single dose 550 mg
quantity.measured: AUC(0-inf) (µg·h/mL)
Express it in µg·h/mL; write the number only.

For CC(=O)O[C@H]1C[C@@]2(C)[C@@H](C[C@@H](O)[C@H]3[C@@]4(C)CC[C@@H](O)[C@@H](C)[C@@H]4CC[C@@]32C)/C1=C(\CCC=C(C)C)C(=O)O [CEM-102, Sodium fusidate] , what is its reported AUC(0-inf)?
441

* * *

measurement.protocol: Dose escalation study, single/multiple dose and loading dose regimens: pharmacokinetics
Assay type: in vivo, human
conditions.used: human, in vivo, 2200 mg
Experimental: The pharmacokinetics (PK), safety, and tolerability of single and multiple doses of CEM-102 (sodium fusidate) were evaluated in a single-center, Phase 1, double-blind, randomized, placebo-controlled, dose-escalating study in 32 healthy adult subjects enrolled in 4 dosage groups (550, 1100, 1650, and 2200 mg). In each cohort, six subjects were to receive CEM-102 and two were to receive placebo in a single dose (Period 1) and then multiple doses BID for a total of 11 doses over 5.5 days (Period 2). […]
quantity.measured: half-life
Record the result as number plus unit.

For CC(=O)O[C@H]1C[C@@]2(C)[C@@H](C[C@@H](O)[C@H]3[C@@]4(C)CC[C@@H](O)[C@@H](C)[C@@H]4CC[C@@]32C)/C1=C(\CCC=C(C)C)C(=O)O [CEM-102, Sodium fusidate] , what is its reported half-life?
13.9 h

* * *

measurement.protocol: Single oral dose bioavailability study, fed/fasted crossover, plasma fusidic acid
conditions.used: human, in vivo, 500 mg, 500 mg single oral dose, fasting, read-out: AUCinf, geometric mean (CV %)
quantity.measured: AUC(0-inf) (µg·h/mL)
Express it in µg·h/mL; write the number only.

For CC(=O)O[C@H]1C[C@@]2(C)[C@@H](C[C@@H](O)[C@H]3[C@@]4(C)CC[C@@H](O)[C@@H](C)[C@@H]4CC[C@@]32C)/C1=C(\CCC=C(C)C)C(=O)O [CEM-102, Sodium fusidate] , what is its reported AUC(0-inf)?
318
